Reported inhibition at 0.01 µM values for the following compounds.
study target: IDH R132C (Homo sapiens, UniProt O75874, R132C)
Construct: expressed in transfected cells; host or cells: U87 cells
Sequence (O75874 whole entry R132C): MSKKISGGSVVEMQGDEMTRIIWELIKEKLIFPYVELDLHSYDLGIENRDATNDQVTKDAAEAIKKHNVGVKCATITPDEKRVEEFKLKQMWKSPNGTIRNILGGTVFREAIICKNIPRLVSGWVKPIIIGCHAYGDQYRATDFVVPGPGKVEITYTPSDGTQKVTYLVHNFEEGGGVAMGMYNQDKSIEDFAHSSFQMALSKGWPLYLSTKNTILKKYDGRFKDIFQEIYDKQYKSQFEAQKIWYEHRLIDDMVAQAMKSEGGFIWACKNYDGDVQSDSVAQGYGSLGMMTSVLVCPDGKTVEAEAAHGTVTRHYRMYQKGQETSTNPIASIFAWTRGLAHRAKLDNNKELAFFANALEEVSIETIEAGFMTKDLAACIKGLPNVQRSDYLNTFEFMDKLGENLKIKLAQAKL
assay comment: Detection of 2-HG in supernatant of U87-IDH R132C cells
Assay type: cell-based
assay setup: 10 nM compound, 72 h, LC-MS-MS, vs control; read-out: Inhibition rate of compounds on 2-HG in the supernatant of U87-IDH R132C cells, 10 nM

C=CC(=O)N1CCN(C(CC23CC(C2)C3)c2ccc([C@H](C)Nc3ncc4c(n3)N(CC)C(=O)NC4)cc2)CC1 (stereo partly drawn) : > 90%
C=CC(=O)N1CC2(C1)CN([C@@H](CC13CC(C1)C3)c1ccc([C@H](C)Nc3ncc4c(n3)N(CC)C(=O)OC4)cc1)C2 : > 90%
C=CC(=O)N1CCN(C(CC2CCC2)c2ccc([C@H](C)Nc3ncc4cnc(=O)n(C(C)C)c4n3)cc2)CC1 (stereo partly drawn) : 60 to 90%
C=CC(=O)NC1CCN(C(CC2CC2)c2ccc(C3(Nc4ncc5c(n4)N(CC)C(=O)OC5)CC3)cc2)CC1 (stereo not drawn) : 60 to 90%
C=CC(=O)N1CCN(C(CC)c2ccc([C@H](C)Nc3ncc4cnc(=O)n(C(C)C)c4n3)cc2)CC1 (stereo partly drawn) : > 90%
C=CC(=O)N1CCN([C@@H](CC23CC(C2)C3)c2ccc([C@H](C)Nc3ncc4c(n3)N(CC)C(=O)NC4)cc2)CC1 : > 90%
C=CC(=O)N1CC2(C1)CN([C@@H](CC13CC(C1)C3)c1ccc([C@H](C)Nc3ncc4c(n3)N(CC)C(=O)NC4)cc1)C2 : > 90%
C=CC(=O)N1CCN(C(CC2(C)CC2)c2ccc([C@H](C)Nc3ncc4c(n3)N(CC)C(=O)OC4)cc2)CC1 (stereo partly drawn) : > 90%
C=CC(=O)N1CC2(C1)CN(C(CC)c1ccc([C@H](C)Nc3ncc4c(n3)N(CC)C(=O)OC4)cc1)C2 (stereo partly drawn) : > 90%
C=CC(=O)N1CC2(C1)CN(C(CC13CC(C1)C3)c1ccc([C@H](C)Nc3ncc4c(n3)N(CC)C(=O)OC4)cc1)C2 (stereo partly drawn) : > 90%

Which inhibition at 0.01 µM reading was recorded for the compound C=CC(=O)N1CCN(C(CC(C)(C)C)c2ccc([C@H](C)Nc3ncc4cnc(=O)n(C(C)C)c4n3)cc2)CC1 (stereo partly drawn) ?
60 to 90%

Which inhibition at 0.01 µM reading was recorded for the compound `C=CC(=O)N1CC2(C1)CN([C@@H](CC)c1ccc([C@H](C)Nc3ncc4c(n3)N(CC)C(=O)OC4)cc1)C2` ?
> 90%

Which inhibition at 0.01 µM reading was recorded for the compound C=CC(=O)NC1CCN(C(CC2CC2)c2ccc(C3(Nc4ncc5c(n4)N(C(C)C)C(=O)OC5)CC3)cc2)CC1 (stereo not drawn) ?
30 to 60%

Which inhibition at 0.01 µM reading was recorded for the compound C=CC(=O)N1CCN(C(CC2(C)CC2)c2ccc([C@H](C)Nc3ncc4cnc(=O)n(CC)c4n3)cc2)CC1 (stereo partly drawn) ?
> 90%

Which inhibition at 0.01 µM reading was recorded for the compound C=CC(=O)NC1CCN(C(CC2CC2)c2ccc([C@H](C)Nc3ncc4c(n3)N(CC)C(=O)OC4)cc2)CC1 (stereo partly drawn) ?
> 90%

Which inhibition at 0.01 µM reading was recorded for the compound C=CC(=O)N1CCN(C(CC2CC2)c2ccc(C3(Nc4ncc5cnc(=O)n(CC)c5n4)CC3)cc2)CC1 (stereo not drawn) ?
60 to 90%

Which inhibition at 0.01 µM reading was recorded for the compound `C=CC(=O)N1CCN([C@H](CC)c2ccc([C@H](C)Nc3ncc4cnc(=O)n(CC)c4n3)cc2)CC1` ?
60 to 90%
